normalized growth values by entry
ASSAY_METHOD_TEXT: chemical genetic growth profiling, strain panel (AID 1159580);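 further: tested at 20 µM; growth read once vehicle control cultures reached saturation at 30 °C; 1 = growth at the plate median or of vehicle wells; lower values mean less growth of the strain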
MEASUREMENT_CONDITIONS: S. cerevisiae deletion strains, growth OD, locus YKL009W, strain mrt4, hits give low values
The whole screen tested about 5,500 compounds, of which about 2,000 (36%) were called active. Not shown: some 18% with an inconclusive outcome. The list shows a part of the results.
Give the figure by itself; no unit, no explanation.

Example cases with answers are listed next.
{"MOLECULE": "CC(=O)Oc1ccc2c(c1C(C)C)CCC1C(C)(C)CCC[C@]21C (some centres undefined)", "normalized growth": 1.01}
{"MOLECULE": "CC(C)c1c(O)ccc2c1CCC1[C@@](C)(C=O)CCC[C@]21C (some centres undefined)", "normalized growth": 0.998}
{"MOLECULE": "Cc1ccccc1OCC(O)CO (centres undefined)", "normalized growth": 0.987}
{"MOLECULE": "NC(=O)CN1CCCC1=O", "normalized growth": 1.01}
{"MOLECULE": "NC(=O)NCCCC(N)C(=O)O (centres undefined)", "normalized growth": 0.984}

Query string: Which value of normalized growth has been reported for "CC(C)[N+](C)(CCC(C(N)=O)(c1ccccc1)c1ccccc1)C(C)C" in the records?
Result string: 1

Query string: Which value of normalized growth has been reported for "COc1ccc2ccc(=O)oc2c1" in the records?
Result string: 1

Query string: Which value of normalized growth has been reported for CCCCCCC(C)OC(=O)COc1ccc(Cl)cc1Cl (centres undefined) in the records?
Result string: 0.992

Query string: Which value of normalized growth has been reported for "CC(=O)OCC1=C(C(=O)O)N2C(=O)[C@@H](NC(=O)Cc3cccs3)[C@H]2SC1" in the records?
Result string: 1
